Give Kd for every item shown.
assay: Binding affinity to Thermotoga maritima histidine kinase HK853 by STD-NMR analysis
Give bare numbers, in µM.

SMILES_REPRESENTATION: CS(=O)(=O)c1ccc(CCNC(=N)N)cc1
READOUT_UNITS: µM
Kd: 580

Consider the additional molecule presented here.
Exercise: Fill in: Kd of "N=C(N)NCCc1ccc(O)cc1" is ___
Key: 2410

----------
Could you please report measured IC50 for the items listed next?
assay: Inhibition of Thermotoga maritima histidine kinase HK853 autophosphorylation
One number for each entry, in µM.

SMILES_REPRESENTATION: C/C(=C/CC(C)(C)/C=C/C(=O)N[C@@H](Cc1c[nH]c2ccccc12)C(=O)O)CC/C=C(\C)Br
READOUT_UNITS: µM
IC50: 44

Exercise: Returns the measured IC50 for the input molecule. Input: "CCCN(C(=O)/C(C#N)=C(/C)O)c1nc(-c2ccc(C(C)(C)C)cc2)cs1"
Key: 30
